The measured values listed here are drawn from patent US10294234B2.

conditions: dog, microsomes
Please provide measured Dog. Pred. Cl. for the entries that follow.
One number for each entry, in L/H/kg.

>>> measured_number("COC(=O)N[C@H](C(=O)N[C@@H](Cc1ccc(C#Cc2cnc(N3CC4CCC(C3)N4C3COC3)nc2)cc1)[C@@H](O)CN(Cc1c(F)cc(-c2cnc(C)nc2)cc1F)NC(=O)[C@@H](NC(=O)OC)C(C)(C)C(F)(F)F)C(C)(C)C(F)(F)F")
1.35
>>> measured_number("COC(=O)N[C@H](C(=O)N[C@@H](Cc1ccc(C#Cc2cnc(N3CC4CCC(C3)N4C3COC3)nc2)cc1)[C@@H](O)CN(Cc1c(F)cc(-c2cn(C(F)F)nn2)cc1F)NC(=O)[C@@H](NC(=O)OC)C(C)(C)C(F)(F)F)C(C)(C)C(F)(F)F")
0.19
>>> measured_number("COC(=O)N[C@H](C(=O)N[C@@H](Cc1ccc(C#Cc2ccc(N3CC4CCC(C3)N4C3COC3)nc2)cc1)[C@@H](O)CN(Cc1ccc(-c2ccccn2)cc1)NC(=O)[C@@H](NC(=O)OC)C(C)(C)C(F)(F)F)C(C)(C)C(F)(F)F")
1.47

Now look at this entry.
Inquiry: # lookup: Dog. Pred. Cl. of COC(=O)N[C@H](C(=O)N[C@@H](Cc1ccc(C#Cc2ccc(N3CC4CCC(C3)N4C3COC3)nc2)cc1)[C@@H](O)CN(Cc1c(F)cc(-c2ccn(CC(F)F)n2)cc1F)NC(=O)[C@@H](NC(=O)OC)C(C)(C)C(F)(F)F)C(C)(C)C(F)(F)F
Reply text: 1.64

* * *

conditions: human liver microsomes 0.5 mg/mL, 1 uM compound, NADPH
readout.type: Human Pred Cl. (L/H/kg)
One number for each entry, in L/H/kg.

>>> measured_number("COC(=O)N[C@H](C(=O)N[C@@H](Cc1ccc(C#Cc2ccc(N3CC4CC(CN(C(C)=O)C4)C3)nc2)cc1)[C@@H](O)CN(Cc1c(F)cc(-c2cnn(C(F)F)c2)cc1F)NC(=O)[C@@H](NC(=O)OC)C(C)(C)C(F)(F)F)C(C)(C)C(F)(F)F [Example 67]")
0.41

Inquiry: # lookup: Human Pred Cl. of COC(=O)N[C@H](C(=O)N[C@@H](Cc1ccc(C#Cc2ccc(N3CCN(C4CCOCC4)CC3)nc2)cc1)[C@@H](O)CN(Cc1c(F)cc(-c2cnn(C(F)F)c2)cc1F)NC(=O)[C@@H](NC(=O)OC)C(C)(C)C(F)(F)F)C(C)(C)C(F)(F)F [Example 115]
Reply text: 0.12

* * *

details: dog, microsomes
Please provide measured Dog. Pred. Cl. for the entries that follow.

Use the examples below as a reference point.
>>> result("COC(=O)N[C@H](C(=O)N[C@@H](Cc1ccc(C#Cc2cnc(N3CC4CCC(C3)N4C3COC3)nc2)cc1)[C@@H](O)CN(Cc1c(F)cc(-c2ncccn2)cc1F)NC(=O)[C@@H](NC(=O)OC)C(C)(C)C(F)(F)F)C(C)(C)C(F)(F)F")
"1.67 L/H/kg"
>>> result("COC(=O)N[C@H](C(=O)NN(Cc1c(F)cc(-c2ccn(C(F)F)n2)cc1F)C[C@H](O)[C@H](Cc1ccc(C#Cc2cnc(N3CC4CCC(C3)N4C3COC3)nc2)cc1)NC(=O)[C@@H](NC(=O)OC)C(C)(C)C(F)(F)F)C(C)(C)C")
"0.21 L/H/kg"
>>> result("COC(=O)N[C@H](C(=O)NN(Cc1c(F)cc(-c2ccn(C(F)F)n2)cc1F)C[C@H](O)[C@H](Cc1ccc(-c2cnc(N3CC4CCC(C3)N4C3COC3)nc2)cc1)NC(=O)[C@@H](NC(=O)OC)C(C)(C)C(F)(F)F)C(C)(C)C")
"1.04 L/H/kg"
>>> result("COC(=O)N[C@H](C(=O)N[C@@H](Cc1ccc(C#Cc2ccc(N3CC4COCC(C3)N4C)nc2)cc1)[C@@H](O)CN(Cc1c(F)cc(-c2ccn(C3CC3)n2)cc1F)NC(=O)[C@@H](NC(=O)OC)C(C)(C)C(F)(F)F)C(C)(C)C(F)(F)F")
"1.74 L/H/kg"
>>> result("COC(=O)N[C@H](C(=O)NN(Cc1c(F)cc(-c2ccn(C(F)F)n2)cc1F)C[C@H](O)[C@H](Cc1ccc(C#Cc2cnc(N3CC4CCC(C3)N4C3COC3)nc2)cc1)NC(=O)[C@@H](NC(=O)C1CC1)C(C)(C)C(F)(F)F)C(C)(C)C(F)(F)F")
"0.14 L/H/kg"
>>> result("COC(=O)N[C@H](C(=O)N[C@@H](Cc1ccc(C#Cc2ccc(N3CC4CCC(C3)N4C3COC3)nc2)cc1)[C@@H](O)CN(Cc1c(F)cc(-c2cnn(C(F)F)c2)cc1F)NC(=O)[C@@H](NC(=O)OC)C(C)(C)C(F)(F)F)C(C)(C)C(F)(F)F")
"0.47 L/H/kg"
>>> result("COC(=O)N[C@H](C(=O)N[C@@H](Cc1ccc(C#Cc2ccc(N3CC4CCC(C3)N4C3COC3)nc2)cc1)[C@@H](O)CN(Cc1c(F)cc(-c2ccccn2)cc1Cl)NC(=O)[C@@H](NC(=O)OC)C(C)(C)C(F)(F)F)C(C)(C)C(F)(F)F")
"1.53 L/H/kg"

Now look at this entry.
Inquiry: # lookup: Dog. Pred. Cl. of CC(C)([C@H](NC(=O)OC1COC1)C(=O)N[C@@H](Cc1ccc(C#Cc2cnc(N3CC4CCC(C3)N4C3COC3)nc2)cc1)[C@@H](O)CN(Cc1c(F)cc(-c2ccn(C(F)F)n2)cc1F)NC(=O)[C@@H](NC(=O)OC1COC1)C(C)(C)C(F)(F)F)C(F)(F)F
Reply text: 0.46 L/H/kg
